// provenance: patent US20240299360A1

In this section, each of the compounds is paired with its reported pIC50.
- SYSTEM NAME: ADAMTS-5 recombinant protein (Homo sapiens (Human), UniProt Q9UNA0)
- Sequence (Q9UNA0 262-622): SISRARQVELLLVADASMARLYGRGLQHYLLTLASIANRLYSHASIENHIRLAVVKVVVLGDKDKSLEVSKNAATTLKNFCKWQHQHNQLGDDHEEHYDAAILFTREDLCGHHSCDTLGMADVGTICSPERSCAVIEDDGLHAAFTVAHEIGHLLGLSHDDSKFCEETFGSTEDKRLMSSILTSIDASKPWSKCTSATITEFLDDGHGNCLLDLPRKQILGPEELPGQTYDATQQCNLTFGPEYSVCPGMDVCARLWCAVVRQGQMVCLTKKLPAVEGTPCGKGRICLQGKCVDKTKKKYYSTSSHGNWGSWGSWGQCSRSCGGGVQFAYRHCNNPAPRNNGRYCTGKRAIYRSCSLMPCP
- METHOD SUMMARY: In vitro fluorescence (FRET-peptide) enzymatic assay of ADAMTS-5 activity
- Assay type: biochemical
- ASSAY CONDITIONS: FRET peptide substrate 8 μM, 10 nM enzyme, 37° C. 3 hours
pIC50: −log10 of the molar value.

COMPOUND	pIC50
Cn1ccnc1C1(CCC(=O)N2Cc3cc(Cl)c(C(F)(F)F)cc3C2)NC(=O)NC1=O (stereo not drawn) [Example 73]	7.57
COc1ccc2c(c1)CCN(C(=O)CC[C@@]1(C3CC3)NC(=O)NC1=O)CC2 [Example 5]	7.14
Cc1nc(C2(CCC(=O)N3Cc4cc(Cl)c(C(F)(F)F)cc4C3)NC(=O)NC2=O)co1 (stereo not drawn) [Example 81]	7.11
